src = patent US10975081B2

assay_target: LRRK2 Ser935 phosphorylation in SH-SY5Y cells over-expressing recombinant full length LRRK2 (Homo sapiens (Human))
experimental_details: Recombinant cellular LRRK2 AlphaScreen assay
Type: cell-based
assay_conditions: 60 minutes, read-out: Recombinant cellular LRRK2 alphaScreen assay (pIC50) (converted)
measurement_label: IC50

**Q:** Which measured IC50 value corresponds to Cc1cc2cnn(-c3cc(N4CCOCC4)nc(OC(C)C)n3)c2cc1C1CCN(C2COC2)CC1(F)F (single isomer, unassigned) ?
**A:** > 10 µM

**Q:** Which measured IC50 value corresponds to Cc1nc(N2CCO[C@H](CO)C2)cc(-n2ncc3cc(C)c(C4CCCCO4)cc32)n1 (single isomer, unassigned) ?
**A:** > 10 µM

**Q:** Which measured IC50 value corresponds to CCc1nc(N2CCOCC2)cc(-n2ncc3cc(C)c(C4CCN(C)CC4(F)F)cc32)n1 (single isomer, unassigned) ?
**A:** > 10 µM

**Q:** Which measured IC50 value corresponds to Cc1cc2cnn(-c3cc(N4CCOCC4)nc(OC(C)C)n3)c2cc1C1CCN(C)CC1(F)F (single isomer, unassigned) ?
**A:** > 10 µM

**Q:** Which measured IC50 value corresponds to Cc1nc(N2CC(O)C2)cc(-n2ncc3cc(C)c(C4CCN(C)CC4F)cc32)n1 (single isomer, unassigned) [Example E41] ?
**A:** 0.126 µM

**Q:** Which measured IC50 value corresponds to CCOc1nc(N2CCOCC2)cc(-n2ncc3cc(C)c(C4CCN(C5COC5)CC4(F)F)cc32)n1 (single isomer, unassigned) ?
**A:** ≤ 0.1 µM

###

assay_target: LRRK2 Ser935 phosphorylation in SH-SY5Y cells over-expressing recombinant full length LRRK2 (Homo sapiens (Human))
experimental_details: Recombinant cellular LRRK2 AlphaScreen assay
Type: cell-based
assay_conditions: 60 minutes, read-out: Recombinant cellular LRRK2 alphaScreen assay (pIC50) (converted)
Counter-ions that a name gives are not always drawn.
Measured IC50, listed per entry.

{"molecule": "CNC(=O)[C@H]1CN(c2cc(-n3ncc4cc(C)c(C5CCN(C6COC6)CC5F)cc43)ncn2)CCO1 (single isomer, unassigned) [Example E35]", "IC50": "≤ 100 nM"}
{"molecule": "CNC(=O)[C@@H]1CN(c2cc(-n3ncc4cc(C)c(C5CCN(CCOC)CC5F)cc43)ncn2)CCO1 (single isomer, unassigned) [Example E30]", "IC50": "≤ 100 nM"}
{"molecule": "Cc1nc(N2CCO[C@H](CO)C2)cc(-n2ncc3cc(C)c(C4CCN(C5COC5)CC4)cc32)n1 [Example E183]", "IC50": "63.1 nM"}
{"molecule": "Cc1nc(N2CC(O)C2)cc(-n2ncc3cc(C)c(C4CN(C)CCO4)cc32)n1 (single isomer, unassigned) [Example E228]", "IC50": "> 10000 nM"}
{"molecule": "COCCN1CCC(c2ncc3cnn(-c4ccnc(N5CCOCC5)c4)c3n2)C(F)C1 (single isomer, unassigned) [Example E76]", "IC50": "> 10000 nM"}
{"molecule": "COc1nc(N2CC(OCCO)C2)cc(-n2ncc3cc(C)c(C4CCOCC4)cc32)n1 [Example E237]", "IC50": "≤ 100 nM"}
{"molecule": "COc1nc(N2CCOCC2)cc(-n2ncc3cc(C)c(C4CCN(C)CC4(F)F)cc32)n1 (single isomer, unassigned) [Example E4]", "IC50": "25.1 nM"}
{"molecule": "COc1nc(N2CCOCC2)cc(-n2ncc3cc(C)c([C@H]4CCNC[C@H]4F)cc32)n1 (single isomer, unassigned) [Example E62, hydrochloride]", "IC50": "50.1 nM"}
{"molecule": "Cc1nc(N2CC(O)C2)cc(-n2ncc3cc(C)c(C4CCCOC4)cc32)n1 (single isomer, unassigned) [Example E272]", "IC50": "> 10000 nM"}
{"molecule": "Cc1nc(N2CCO[C@@H](CO)C2)cc(-n2ncc3cc(C)c(C4CCOCC4)cc32)n1 [Example E239]", "IC50": "158 nM"}

**Q:** Which measured IC50 value corresponds to Cc1nc(N2CC(O)C2)cc(-n2ncc3cc(Cl)c(N4CCC(O)CC4)cc32)n1 [Example E258] ?
**A:** ≤ 100 nM

**Q:** Which measured IC50 value corresponds to Cc1nc(N2CCO[C@@H](CO)C2)cc(-n2ncc3cc(C)c(C4CCNCC4)cc32)n1 [Example E188] ?
**A:** 79.4 nM

**Q:** Which measured IC50 value corresponds to COc1nc(N2CC(O)C2)cc(-n2ncc3cc(C)c(C4CCN(C)C(=O)C4)cc32)n1 (single isomer, unassigned) [Example E87] ?
**A:** > 10000 nM

###

assay_target: Full length G2019 human LRRK2 (Homo sapiens (Human))
Sequence (Q5S007 other isoform, or with tags, fused parts or gaps): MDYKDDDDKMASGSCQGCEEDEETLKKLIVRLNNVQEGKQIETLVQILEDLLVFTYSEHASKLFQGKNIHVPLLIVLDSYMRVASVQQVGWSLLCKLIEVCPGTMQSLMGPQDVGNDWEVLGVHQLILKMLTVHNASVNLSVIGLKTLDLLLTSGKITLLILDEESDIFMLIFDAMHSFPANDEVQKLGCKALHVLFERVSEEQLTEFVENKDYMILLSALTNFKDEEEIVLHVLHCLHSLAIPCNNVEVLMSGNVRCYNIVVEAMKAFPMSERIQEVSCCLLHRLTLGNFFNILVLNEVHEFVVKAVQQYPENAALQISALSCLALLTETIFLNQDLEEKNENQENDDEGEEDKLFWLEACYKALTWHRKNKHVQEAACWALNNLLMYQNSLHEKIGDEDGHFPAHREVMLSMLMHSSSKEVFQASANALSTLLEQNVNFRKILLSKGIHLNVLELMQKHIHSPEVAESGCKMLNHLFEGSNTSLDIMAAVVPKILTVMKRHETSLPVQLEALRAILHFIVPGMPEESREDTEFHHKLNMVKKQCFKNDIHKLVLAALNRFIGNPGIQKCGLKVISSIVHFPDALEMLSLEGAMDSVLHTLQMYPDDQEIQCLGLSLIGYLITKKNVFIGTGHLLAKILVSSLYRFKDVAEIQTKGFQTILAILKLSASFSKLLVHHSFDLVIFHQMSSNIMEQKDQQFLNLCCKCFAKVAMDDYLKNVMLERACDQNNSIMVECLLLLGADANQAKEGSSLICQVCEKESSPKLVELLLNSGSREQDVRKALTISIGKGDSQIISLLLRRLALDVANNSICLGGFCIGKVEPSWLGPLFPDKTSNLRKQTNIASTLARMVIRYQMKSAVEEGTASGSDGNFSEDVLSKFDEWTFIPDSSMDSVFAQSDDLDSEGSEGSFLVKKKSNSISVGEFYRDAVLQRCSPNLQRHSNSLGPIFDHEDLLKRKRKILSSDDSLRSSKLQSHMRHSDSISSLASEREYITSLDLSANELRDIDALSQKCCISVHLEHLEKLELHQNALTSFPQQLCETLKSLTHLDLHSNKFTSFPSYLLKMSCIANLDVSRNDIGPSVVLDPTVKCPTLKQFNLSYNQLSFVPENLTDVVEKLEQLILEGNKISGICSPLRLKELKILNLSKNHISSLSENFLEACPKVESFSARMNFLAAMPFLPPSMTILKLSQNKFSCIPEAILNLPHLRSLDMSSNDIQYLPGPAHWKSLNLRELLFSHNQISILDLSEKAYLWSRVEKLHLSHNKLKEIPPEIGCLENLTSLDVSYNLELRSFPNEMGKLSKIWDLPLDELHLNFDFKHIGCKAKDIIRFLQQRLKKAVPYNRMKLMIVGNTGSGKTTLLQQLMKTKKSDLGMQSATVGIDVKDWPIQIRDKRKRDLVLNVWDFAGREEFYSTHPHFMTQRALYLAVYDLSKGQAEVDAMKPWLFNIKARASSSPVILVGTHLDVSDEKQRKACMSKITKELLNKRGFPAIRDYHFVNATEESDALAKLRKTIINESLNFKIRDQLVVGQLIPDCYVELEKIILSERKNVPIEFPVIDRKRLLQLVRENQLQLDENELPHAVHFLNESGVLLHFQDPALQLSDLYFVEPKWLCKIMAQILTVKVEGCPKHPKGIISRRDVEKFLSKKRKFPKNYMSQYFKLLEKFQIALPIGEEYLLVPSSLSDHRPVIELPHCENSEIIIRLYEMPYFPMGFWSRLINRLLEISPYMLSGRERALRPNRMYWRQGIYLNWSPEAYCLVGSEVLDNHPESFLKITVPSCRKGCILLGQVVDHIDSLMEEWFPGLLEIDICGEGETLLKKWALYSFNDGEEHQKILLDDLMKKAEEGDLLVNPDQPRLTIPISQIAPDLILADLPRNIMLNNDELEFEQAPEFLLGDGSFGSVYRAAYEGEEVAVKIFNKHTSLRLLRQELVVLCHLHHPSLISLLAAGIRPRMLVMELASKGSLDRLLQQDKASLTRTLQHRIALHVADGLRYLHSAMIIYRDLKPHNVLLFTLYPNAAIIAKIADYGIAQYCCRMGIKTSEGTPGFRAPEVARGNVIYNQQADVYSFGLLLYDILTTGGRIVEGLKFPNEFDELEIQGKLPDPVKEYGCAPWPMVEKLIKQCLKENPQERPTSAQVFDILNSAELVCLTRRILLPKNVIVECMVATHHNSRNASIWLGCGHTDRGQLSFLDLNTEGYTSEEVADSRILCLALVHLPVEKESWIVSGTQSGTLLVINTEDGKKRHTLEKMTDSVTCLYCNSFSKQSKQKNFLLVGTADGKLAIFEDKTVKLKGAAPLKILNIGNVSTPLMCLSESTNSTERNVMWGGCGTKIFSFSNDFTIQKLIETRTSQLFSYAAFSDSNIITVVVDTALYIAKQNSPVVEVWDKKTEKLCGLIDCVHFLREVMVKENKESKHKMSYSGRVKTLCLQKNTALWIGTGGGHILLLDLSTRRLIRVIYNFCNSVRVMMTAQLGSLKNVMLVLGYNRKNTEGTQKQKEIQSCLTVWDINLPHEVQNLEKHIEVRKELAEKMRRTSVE
experimental_details: Full length G2019 human LRRK2 inhibition mass spectrometry assay
Assay type: biochemical
assay_conditions: Full length Flag-LRRK2, 25 uM LRRKtide, 2 mM ATP
measurement_label: Full length G2019 human LRRK2 Inhibition mass spectrometry assay (pIC50)
Give a plain numeric answer without units written out.

Reference set (3 entries):
{"molecule": "COc1nc(N2CCOCC2)cc(-n2ncc3cc(C)c(C4CCNCC4)cc32)n1.Cl [Example E205]", "recorded_value": 7.7}
{"molecule": "Cc1nc(N2CCO[C@H](CO)C2)cc(-n2ncc3cc(C)c(C4CCN(C5COC5)CC4)cc32)n1 [Example E183]", "recorded_value": 7.9}
{"molecule": "Cc1nc(N2CCO[C@H](CO)C2)cc(-n2ncc3cc(Cl)c(C4CCN(C5COC5)CC4)cc32)n1 [Example E208]", "recorded_value": 7.7}

**Q:** Which measured Full length G2019 human LRRK2 Inhibition mass spectrometry assay (pIC50) value corresponds to Cc1nc(N2CCO[C@@H](CO)C2)cc(-n2ncc3cc(C)c(C4CCNCC4)cc32)n1 [Example E188] ?
**A:** 7.6

**Q:** Which measured Full length G2019 human LRRK2 Inhibition mass spectrometry assay (pIC50) value corresponds to Cc1nc(N2CCO[C@@H](CO)C2)cc(-n2ncc3cc(C)c(C4CCOCC4)cc32)n1 [Example E239] ?
**A:** 7.9

###

assay_target: LRRK2 Ser935 phosphorylation in SH-SY5Y cells over-expressing recombinant full length LRRK2 (Homo sapiens (Human))
experimental_details: Recombinant cellular LRRK2 AlphaScreen assay
Type: cell-based
assay_conditions: 60 minutes, read-out: Recombinant cellular LRRK2 alphaScreen assay (pIC50) (converted)
Measured IC50, listed per entry.
Respond with the bare value in nM.

Reference set (4 entries):
{"molecule": "COc1nc(N2CC(C#N)C2)cc(-n2ncc3cc(C)c(C4CCNCC4(F)F)cc32)n1 (single isomer, unassigned)", "measurement_label": "IC50", "recorded_value": 126}
{"molecule": "COc1nc(N2CC(O)C2)cc(-n2ncc3cc(C)c(C4CN(C)CCO4)cc32)n1 (single isomer, unassigned) [Example E230]", "measurement_label": "IC50", "recorded_value": 631}
{"molecule": "COc1nc(N2CCNCC2)cc(-n2ncc3cc(C)c(N4CCOCC4)cc32)n1", "measurement_label": "IC50", "recorded_value": 631}
{"molecule": "Cc1nc(N2CC(O)C2)cc(-n2ncc3cc(C)c(C4CCN(C)CC4F)cc32)n1 (single isomer, unassigned) [Example E40]", "measurement_label": "IC50", "recorded_value": 50.1}

Continue with the next molecule.
**Q:** Which measured IC50 value corresponds to COc1nc(N2CC(O)C2)cc(-n2ncc3cc(C)c(C4CCN(C)CC4F)cc32)n1 (single isomer, unassigned) [Example E38] ?
**A:** 31.6

###

Measured IC50, listed per entry.
assay_target: LRRK2 Ser935 phosphorylation in SH-SY5Y cells over-expressing recombinant full length LRRK2 (Homo sapiens (Human), UniProt Q5S007)
experimental_details: Recombinant cellular LRRK2 AlphaScreen assay
Type: cell-based
assay_conditions: 60 minutes, read-out: Recombinant cellular LRRK2 alphaScreen assay (pIC50) (converted)

{"compound": "Cc1cc2cnn(-c3cc(N4CC(O)C4)nc(C4CC4)n3)c2cc1[C@H]1CCN(C)C[C@H]1F (single isomer, unassigned)", "IC50": "≤ 100 nM"}

**Q:** Which measured IC50 value corresponds to COc1nc(N2CC(O)C2)cc(-n2ncc3cc(C)c([C@@H]4CN(C)C[C@@H]4F)cc32)n1 (single isomer, unassigned) ?
**A:** > 10000 nM

**Q:** Which measured IC50 value corresponds to `COc1nc(N2CC(C)(O)C2)cc(-n2ncc3cc(C)c(C4CCN(C5COC5)CC4)cc32)n1` ?
**A:** ≤ 100 nM

###

assay_target: Truncated G2019 human LRRK2 (1326-2527) (Homo sapiens (Human))
Sequence (Q5S007 1326-2527): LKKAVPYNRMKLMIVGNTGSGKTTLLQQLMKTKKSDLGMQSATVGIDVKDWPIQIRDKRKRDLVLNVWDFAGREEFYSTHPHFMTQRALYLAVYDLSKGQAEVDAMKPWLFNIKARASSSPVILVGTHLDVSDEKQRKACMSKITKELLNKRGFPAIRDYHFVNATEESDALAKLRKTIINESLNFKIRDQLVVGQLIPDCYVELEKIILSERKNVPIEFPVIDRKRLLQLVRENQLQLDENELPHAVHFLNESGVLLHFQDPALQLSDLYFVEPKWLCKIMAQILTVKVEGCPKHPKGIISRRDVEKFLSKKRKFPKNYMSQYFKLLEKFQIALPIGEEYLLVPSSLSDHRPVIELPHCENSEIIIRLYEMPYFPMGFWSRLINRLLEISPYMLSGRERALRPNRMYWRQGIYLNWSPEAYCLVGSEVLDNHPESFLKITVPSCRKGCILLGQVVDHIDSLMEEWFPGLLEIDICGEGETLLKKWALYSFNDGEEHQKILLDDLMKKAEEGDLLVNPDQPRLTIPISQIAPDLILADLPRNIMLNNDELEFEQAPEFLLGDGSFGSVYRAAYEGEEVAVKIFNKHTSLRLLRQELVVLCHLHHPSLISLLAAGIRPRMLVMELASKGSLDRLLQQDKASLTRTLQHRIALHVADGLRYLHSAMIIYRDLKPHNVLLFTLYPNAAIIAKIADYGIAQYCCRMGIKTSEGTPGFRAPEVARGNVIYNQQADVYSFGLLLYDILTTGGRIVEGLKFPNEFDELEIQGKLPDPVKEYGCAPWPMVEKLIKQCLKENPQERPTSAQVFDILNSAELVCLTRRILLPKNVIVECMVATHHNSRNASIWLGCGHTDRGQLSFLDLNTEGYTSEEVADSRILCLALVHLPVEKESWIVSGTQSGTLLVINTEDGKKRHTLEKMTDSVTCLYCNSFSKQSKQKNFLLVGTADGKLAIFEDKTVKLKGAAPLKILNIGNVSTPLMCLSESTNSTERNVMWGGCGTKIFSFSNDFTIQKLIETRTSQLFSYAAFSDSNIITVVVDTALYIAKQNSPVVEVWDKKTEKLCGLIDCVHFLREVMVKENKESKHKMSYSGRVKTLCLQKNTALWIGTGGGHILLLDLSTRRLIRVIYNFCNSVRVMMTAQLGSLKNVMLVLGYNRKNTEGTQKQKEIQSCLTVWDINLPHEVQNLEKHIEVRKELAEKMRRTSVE
experimental_details: Truncated G2019 human LRRK2 (1326-2527) inhibition mass spectrometry assay
Format: biochemical
assay_conditions: 6HIS-Tev-LRRK2 (1326-2527), 25 uM LRRKtide, 20 uM ATP; read-out: Truncated G2019 human LRRK2 inhibition mass spectrometry assay (pIC50) (converted)
measurement_label: IC50 (nM)
Respond with the bare value in nM.

**Q:** Which measured IC50 value corresponds to CNC(=O)[C@H]1CN(c2cc(-n3ncc4cc(C)c(C5CCN(C)CC5(F)F)cc43)nc(OC)n2)CCO1 (single isomer, unassigned) [Example E18] ?
**A:** 12.6

**Q:** Which measured IC50 value corresponds to COc1nc(N2CC(O)C2)cc(-n2ncc3cc(C)c(C4CCN(C)CC4F)cc32)n1 (single isomer, unassigned) [Example E39] ?
**A:** 10

**Q:** Which measured IC50 value corresponds to Cc1nc(N2CC(O)C2)cc(-n2ncc3cc(C)c(C4CCN(C)CC4F)cc32)n1 (single isomer, unassigned) [Example E40] ?
**A:** 12.6
